Tested on: pERK in A375 cells
experiment_description: In Cell Western (ICW) assay, pERK in A375 cells
Assay type: cell-based
condition_summary: Homo sapiens, A-375, 3 h treatment
pIC50: −log10 of the molar value.
measure: pIC50

Problem: Write down the reported pIC50 (system: pERK in A375 cells) of CNc1ccc(-c2nc(N3CCOCC3)c3nc(-c4cccc(NS(=O)(=O)CCCF)c4F)ccc3n2)cn1
Result: 7.00 to 9.00

Problem: Report pIC50 from pERK in A375 cells testing of Nc1ccc(-c2nc(N3CCOCC3)c3cc(-c4cccc(NS(=O)(=O)CCCF)c4F)cc(OCCO)c3n2)cn1
Result: 6.00 to 7.00

Problem: Please look at COc1cc2nc(-c3cnc(N)nc3)nc(N3CCOCC3)c2cc1-c1cccc(NS(=O)(=O)CCCF)c1F and tell me its recorded pIC50 on pERK in A375 cells.
Result: 7.00 to 9.00

Problem: System pERK in A375 cells. Read-out pIC50. Item COc1cc(-c2cccc(NS(=O)(=O)CCCF)c2F)cc2c(N3CCOC[C@@H]3C)nc(-c3cnc(N)nc3)nc12 . Report value.
Result: 6.00 to 7.00

Problem: Jot down pIC50 (pERK in A375 cells) of Nc1cc(F)c(-c2nc(N3CCOCC3)c3nc(-c4cccc(NS(=O)(=O)CCCF)c4F)ccc3n2)cn1 .
Result: 6.00 to 7.00

Problem: State, for pERK in A375 cells, measured pIC50 of the compound listed here: CNC(=O)Nc1ccc(-c2nc(N3CCOCC3)c3cc(-c4cccc(NS(=O)(=O)CCCF)c4F)cc(OC)c3n2)cn1
Result: 7.00 to 9.00

====

target_desc: B-RAFV600E (Homo sapiens, UniProt P15056, V600E)
Construct: purchased Millipore, USA 14-557
Sequence (P15056 416-766 V600E limits assumed): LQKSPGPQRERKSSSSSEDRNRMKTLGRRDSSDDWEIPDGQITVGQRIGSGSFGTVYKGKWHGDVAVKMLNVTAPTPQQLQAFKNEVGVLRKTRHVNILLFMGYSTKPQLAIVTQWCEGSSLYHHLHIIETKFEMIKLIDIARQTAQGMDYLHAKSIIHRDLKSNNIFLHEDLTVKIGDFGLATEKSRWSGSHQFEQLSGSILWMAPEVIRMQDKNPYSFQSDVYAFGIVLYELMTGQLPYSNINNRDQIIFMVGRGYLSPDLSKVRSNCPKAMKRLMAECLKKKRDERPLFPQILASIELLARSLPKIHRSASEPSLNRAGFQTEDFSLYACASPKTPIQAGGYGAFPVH
experiment_description: B-RAFV600E radiometric assay
Assay type: biochemical
condition_summary: read-out: Kinase assay B-Raf
pIC50: −log10 of the molar value.
Reported pIC50 by item:

# count of solved cases: 5
# smiles, recorded_result
data = [
    ("Nc1ncc(-c2nc(N3CCOCC3)c3nc(-c4cccc(NS(=O)(=O)CCCF)c4F)ccc3n2)cn1", "7.00 to 9.00"),
    ("NC(=O)COc1cc(-c2cccc(NS(=O)(=O)CCCF)c2F)cc2c(N3CCOCC3)nc(-c3ccc(N)nc3)nc12", "7.00 to 9.00"),
    ("Nc1cc(F)c(-c2nc(N3CCOCC3)c3nc(-c4cccc(NS(=O)(=O)CCCF)c4F)ccc3n2)cn1", "7.00 to 9.00"),
    ("Nc1ncc(-c2nc(N3CCOCC3)c3nc(-c4cccc(NS(=O)(=O)c5cc(F)ccc5F)c4F)ccc3n2)cn1", "7.00 to 9.00"),
    ("CCCS(=O)(=O)Nc1cccc(-c2cc(OC)c3nc(-c4cnc(N)c(C)c4)nc(N4CCOCC4)c3c2)c1F", "6.00 to 7.00"),
]

Consider the record given below.
Problem: State its pIC50: CCOc1cc(-c2cccc(NS(=O)(=O)CCCF)c2F)cc2c(N3CCOC[C@H]3C)nc(-c3cnc(NC)nc3)nc12
Result: 7.00 to 9.00
